For each entry below, report its LE value.
TARGET_ENTITY: PAK4 (Homo sapiens)
Sequence (O96013 whole entry): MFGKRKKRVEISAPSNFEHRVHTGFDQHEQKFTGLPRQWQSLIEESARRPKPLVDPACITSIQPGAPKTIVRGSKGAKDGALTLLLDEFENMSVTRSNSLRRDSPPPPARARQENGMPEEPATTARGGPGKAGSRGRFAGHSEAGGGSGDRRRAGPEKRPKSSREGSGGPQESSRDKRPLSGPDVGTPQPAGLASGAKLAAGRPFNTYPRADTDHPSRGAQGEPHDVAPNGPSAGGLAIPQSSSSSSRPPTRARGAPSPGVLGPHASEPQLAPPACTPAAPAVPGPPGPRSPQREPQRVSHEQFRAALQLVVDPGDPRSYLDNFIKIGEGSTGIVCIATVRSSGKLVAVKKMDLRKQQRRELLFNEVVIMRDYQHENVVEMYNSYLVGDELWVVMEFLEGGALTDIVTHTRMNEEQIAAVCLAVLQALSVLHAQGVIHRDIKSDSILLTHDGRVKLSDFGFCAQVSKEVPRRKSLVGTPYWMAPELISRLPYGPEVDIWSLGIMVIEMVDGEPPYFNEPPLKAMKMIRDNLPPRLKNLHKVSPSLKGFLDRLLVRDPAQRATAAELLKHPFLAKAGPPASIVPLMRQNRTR
PROCEDURE_DETAILS: PAK4 HTRF assay
Format: biochemical
CONDITION_DESCRIPTION: Ligand efficiency = (−1.4 Log Ki)/(n heavy atoms), PAK4 Ki
Format: numeric value only, no unit, no commentary.

Please fill in: LE reported for Nc1nccc(-n2cc(C(=O)N3CC[C@@H](N)C3)c3ccc(C#CC4(O)CCCCC4)cc32)n1 [Compound 51] = 0.31

Please fill in: LE reported for Nc1nccc(-n2ccc3cc(F)c(C#CC4(O)CCCCC4)cc32)n1 [Compound 5a] = 0.38

Please fill in: LE reported for Nc1cc(-n2ccc3ccc(C#CC4(O)CCCCC4)cc32)nc(N)n1 [Compound 5b] = 0.33

Please fill in: LE reported for Nc1nccc(-n2cc(C(=O)N3CCC[C@@H](N)C3)c3ccc(C#CC4(O)CCCCC4)cc32)n1 [Compound 47] = 0.34

Please fill in: LE reported for Nc1nccc(-n2cc(C(=O)N[C@@H]3CCNC3)c3ccc(C#CC4(O)CCCCC4)cc32)n1 [Compound 52] = 0.31

Please fill in: LE reported for Nc1nccc(-n2cc(C(=O)N3CCC[C@H](N)C3)c3ccc(C#CC4(O)CCCCC4)cc32)n1 [Compound 45] = 0.30

Please fill in: LE reported for Cc1cnc(N)nc1-n1ccc2ccc(C#CC3(O)CCCCC3)cc21 [Compound 5d] = 0.35

Please fill in: LE reported for Nc1nccc(-n2ccc3ccc(C#CC4(O)CCCCC4)nc32)n1 [Compound 9] = 0.36

Please fill in: LE reported for Nc1nccc(-n2ccc3ccc(C#CC4(O)CCCCC4)cc32)n1 [Compound 5] = 0.39

Please fill in: LE reported for Nc1cc(-n2ccc3ccc(C#CC4(O)CCCCC4)cc32)ncn1 [Compound 5c] = 0.36

Please fill in: LE reported for Nc1nccc(-n2cc(C(=O)N[C@@H]3CCCNC3)c3ccc(C#CC4(O)CCCCC4)cc32)n1 [Compound 48] = 0.33

Please fill in: LE reported for Nc1nccc(-n2ccc3cnc(C#CC4(O)CCCCC4)cc32)n1 [Compound 8] = 0.42

Please fill in: LE reported for Nc1nccc(-n2cc(C(=O)N[C@H]3CCNC3)c3ccc(C#CC4(O)CCCCC4)cc32)n1 [Compound 50] = 0.31

Please fill in: LE reported for Nc1nccc(-n2cc(C(=O)N3CCNCC3)c3ccc(C#CC4(O)CCCCC4)cc32)n1 [Compound 42] = 0.35

Please fill in: LE reported for Nc1nccc(-n2cc(C(=O)N3CC[C@H](N)C3)c3ccc(C#CC4(O)CCCCC4)cc32)n1 [Compound 53] = 0.31

Please fill in: LE reported for Nc1nccc(-n2cc(C(=O)N3CCC(N)CC3)c3ccc(C#CC4(O)CCCCC4)cc32)n1 [Compound 43] = 0.29

Please fill in: LE reported for Nc1nccc(-n2ccc3ncc(C#CC4(O)CCCCC4)cc32)n1 [Compound 7] = 0.40

Origin of measurements: paper PMC9214071
